The reported numbers originate from ChEMBL document CHEMBL5724801.

system: Fibroblast; assay: Multiplex assay against human fibroblast; type: toxicity, cell-based; settings: 24 h, 10 µM, compound concentration 10 uM
endpoint: Population Membrane Permeable-Phenotype (%)
Answers are plain numbers, in %.

Here are 3 compounds together with their reported answers.
Which value of Population Membrane Permeable-Phenotype (%) has been reported for `CCC(=O)N1CCN(c2ccc(-n3c(=O)ccc4cnc5ccc(-c6cnc7ccccc7c6)cc5c43)cc2C(F)(F)F)CC1` in the records?
0

Which value of Population Membrane Permeable-Phenotype (%) has been reported for `N[C@](CC1c2ccccc2Oc2ccccc21)(C(=O)O)[C@H]1C[C@@H]1C(=O)O` in the records?
1

Which value of Population Membrane Permeable-Phenotype (%) has been reported for `Cc1noc(-c2ccc(-c3ccc(CC(=O)O)cc3)cc2)c1NC(=O)O[C@H](C)c1ccccc1Cl` in the records?
0

// input: 3 compounds below; output: Population Membrane Permeable-Phenotype (%) for each
1. CSc1ccccc1N1CCN(CCCCCC(=O)NC2CCCc3ccccc32)CC1.Cl (stereo unspecified)
2. O=C1NCc2ccc3c(-c4cccc(Cl)c4)c[nH]c3c21
3. CSCC[C@H](NC=O)C(=O)N[C@@H](CC(C)C)C(=O)N[C@@H](Cc1ccccc1)C(=O)O

1: 0; 2: 3.77; 3: 3

----------
Consider the following molecules; for each one, report its Population Tubulin-Different-Phenotype (%).
test system: U2OS; assay: Multiplex assay against U2OS; format: toxicity, cell-based; details: human, 12 h, 10 µM, compound concentration 10 uM
Answers are plain numbers, in %.

Here are 5 molecules together with their reported answers.
Look up Population Tubulin-Different-Phenotype (%) with U2OS for this molecule: `CN(C)CCCc1cc(C(=O)Nc2ccc(-c3ccncc3)cc2)ccc1O.Cl.Cl`
2

Look up Population Tubulin-Different-Phenotype (%) with U2OS for this molecule: `C[C@@H]1CC(=O)Nc2cccc(-c3ccc4c(c3)c(-c3cnn(C)c3)nn4C)c2N1`
8

Look up Population Tubulin-Different-Phenotype (%) with U2OS for this molecule: `N[C@](CC1c2ccccc2Oc2ccccc21)(C(=O)O)[C@H]1C[C@@H]1C(=O)O`
2

Look up Population Tubulin-Different-Phenotype (%) with U2OS for this molecule: Cl.NCCc1ccc(O)c(O)c1 [DOPAMINE HYDROCHLORIDE]
1

Look up Population Tubulin-Different-Phenotype (%) with U2OS for this molecule: `Cc1noc(-c2ccc(-c3ccc(CC(=O)O)cc3)cc2)c1NC(=O)O[C@H](C)c1ccccc1Cl`
6

Proceeding to the next molecule to report its Population Tubulin-Different-Phenotype (%).
Look up Population Tubulin-Different-Phenotype (%) with U2OS for this molecule: `CC(C)c1noc(N2CCC(COc3ccc(-c4ccc(S(C)(=O)=O)cc4)nc3)CC2)n1`
6

----------
test system: U2OS; assay: Multiplex assay against U2OS; type: toxicity, cell-based; settings: human, 48 h, 1 µM, compound concentration 1 uM
Consider the following molecules; for each one, report its Population Membrane Permeable-Phenotype (%).
Please report the result as a number followed by the unit.

Here are 6 molecules together with their reported answers.
Which value of Population Membrane Permeable-Phenotype (%) has been reported for `CSCC[C@H](NC=O)C(=O)N[C@@H](CC(C)C)C(=O)N[C@@H](Cc1ccccc1)C(=O)O` in the records?
4%

Which value of Population Membrane Permeable-Phenotype (%) has been reported for CSc1nc(NC2CCCC2)c([N+](=O)[O-])c(NC2CCCC2)n1 [GS-39783] in the records?
3%

Which value of Population Membrane Permeable-Phenotype (%) has been reported for `Cc1noc(-c2ccc(-c3ccc(CC(=O)O)cc3)cc2)c1NC(=O)O[C@H](C)c1ccccc1Cl` in the records?
6%

Which value of Population Membrane Permeable-Phenotype (%) has been reported for `O=C(CCCc1ccccc1)Nc1nc2ccccc2c(=O)s1` in the records?
3%

Which value of Population Membrane Permeable-Phenotype (%) has been reported for O=C(O)Cc1ccccc1Nc1c(Cl)cccc1Cl [DICLOFENAC] in the records?
4%

Which value of Population Membrane Permeable-Phenotype (%) has been reported for `N#Cc1cc(F)cc(-c2nc(-c3ccc(F)cn3)no2)c1` in the records?
4%

More entries:
Which value of Population Membrane Permeable-Phenotype (%) has been reported for `S=C(NCCCc1c[nH]cn1)NCCCN(Cc1ccc(Cl)c(Cl)c1)c1ccc(Br)cn1` in the records?
5%
